# TEST_METHOD_NOTES: activity coefficient (dimensionless); of the first substance listed, at infinite dilution; xn = mol fraction of the nth substance listed
# CONDITION_SET: 328.15 K; 101.33 kPa; Liquid; Chromatography; x1 = 0
Returns the class for an entry based on its activity coefficient. Class ranges: Low: < 2; Medium: ≥ 2 and < 10; High: ≥ 10

stdin: # classify by activity coefficient band: c1ccncc1 [pyridine] + C[N+]1(CCCO)CCOCC1.N#C[N-]C#N
stdout: Low

stdin: What do we get for CCc1ccccc1 [ethylbenzene] + C[n+]1ccn(CCCO)c1.N#CN=C=[N-] ?
stdout: High

stdin: What do we get for CCO [ethanol] + C[n+]1ccn(CCCO)c1.N#CN=C=[N-] ?
stdout: Low

stdin: What do we get for CO [methanol] + C[n+]1ccn(CCCO)c1.N#CN=C=[N-] ?
stdout: Low

stdin: What do we get for C=Cc1ccccc1 [styrene] + C[N+]1(CCCO)CCOCC1.N#C[N-]C#N ?
stdout: High

stdin: What do we get for C=Cc1ccccc1 [styrene] + C[n+]1ccn(CCCO)c1.N#CN=C=[N-] ?
stdout: Medium

stdin: What do we get for c1ccsc1 [thiophene] + C[n+]1ccn(CCCO)c1.N#CN=C=[N-] ?
stdout: Medium

stdin: What do we get for CCOCC [diethyl ether] + C[N+]1(CCCO)CCOCC1.N#C[N-]C#N ?
stdout: High

stdin: What do we get for CCO [ethanol] + C[N+]1(CCCO)CCOCC1.N#C[N-]C#N ?
stdout: Low

###

# TEST_METHOD_NOTES: activity coefficient (dimensionless); of the first substance listed, at infinite dilution; xn = mol fraction of the nth substance listed
# CONDITION_SET: 368.15 K; 101.33 kPa; Liquid; Chromatography; x1 = 0
For each entry below, report its activity coefficient value.
The response must contain the number and no unit.

stdin: For the compound shown here, CCC(=O)CC [pentan-3-one] + C[N+]1(CCCO)CCOCC1.N#C[N-]C#N , give the reported activity coefficient.
stdout: 8.75

stdin: What do we get for Cc1ccc(C)cc1 [1,4-dimethylbenzene] + C[n+]1ccn(CCCO)c1.N#CN=C=[N-] ?
stdout: 15.5

stdin: What do we get for CC(C)O [propan-2-ol] + C[N+]1(CCCO)CCOCC1.N#C[N-]C#N ?
stdout: 2.6

stdin: What do we get for CCC(=O)OC [methyl propanoate] + C[N+]1(CCCO)CCOCC1.N#C[N-]C#N ?
stdout: 9.01

stdin: What do we get for c1ccccc1 [benzene] + C[n+]1ccn(CCCO)c1.N#CN=C=[N-] ?
stdout: 5.22

stdin: What do we get for CCCc1ccccc1 [propylbenzene] + C[n+]1ccn(CCCO)c1.N#CN=C=[N-] ?
stdout: 28.4

stdin: What do we get for COC(C)(C)C [2-methoxy-2-methylpropane] + C[N+]1(CCCO)CCOCC1.N#C[N-]C#N ?
stdout: 41.3

stdin: What do we get for Cc1cccc(C)c1 [1,3-dimethylbenzene] + C[n+]1ccn(CCCO)c1.N#CN=C=[N-] ?
stdout: 16

stdin: What do we get for CCCC(C)=O [pentan-2-one] + C[n+]1ccn(CCCO)c1.N#CN=C=[N-] ?
stdout: 5.81

stdin: What do we get for CC(C)(C)O [2-methylpropan-2-ol] + C[n+]1ccn(CCCO)c1.N#CN=C=[N-] ?
stdout: 2.79

stdin: What do we get for C=C(C)c1ccccc1 [(1-methylethenyl)benzene] + C[N+]1(CCCO)CCOCC1.N#C[N-]C#N ?
stdout: 21.3

stdin: What do we get for C1CCCCC1 [cyclohexane] + C[N+]1(CCCO)CCOCC1.N#C[N-]C#N ?
stdout: 138

stdin: What do we get for CCCCCO [pentan-1-ol] + C[n+]1ccn(CCCO)c1.N#CN=C=[N-] ?
stdout: 4.05

stdin: What do we get for COC(C)=O [methyl ethanoate] + C[n+]1ccn(CCCO)c1.N#CN=C=[N-] ?
stdout: 3.8

stdin: What do we get for C=Cc1ccccc1 [styrene] + C[n+]1ccn(CCCO)c1.N#CN=C=[N-] ?
stdout: 7.39

stdin: What do we get for C=COC(C)=O [vinyl acetate] + C[N+]1(CCCO)CCOCC1.N#C[N-]C#N ?
stdout: 7.08

stdin: What do we get for C=COC(C)=O [vinyl acetate] + C[n+]1ccn(CCCO)c1.N#CN=C=[N-] ?
stdout: 5.68

stdin: What do we get for C1CCCCCCC1 [cyclooctane] + C[N+]1(CCCO)CCOCC1.N#C[N-]C#N ?
stdout: 229

###

# TEST_METHOD_NOTES: activity coefficient (dimensionless); of the first substance listed, at infinite dilution; xn = mol fraction of the nth substance listed
# CONDITION_SET: 308.15 K; 101.33 kPa; Liquid; Chromatography; x1 = 0
Could you label it satisfied if measured activity coefficient is 300 or higher, and not satisfied otherwise?

stdin: Given the entry C1CCCCCCC1 [cyclooctane] + C[N+]1(CCCO)CCOCC1.N#C[N-]C#N , answer whether its activity coefficient meets or surpasses 300.
stdout: satisfied

stdin: What do we get for CC1CCCCC1 [methylcyclohexane] + C[n+]1ccn(CCCO)c1.N#CN=C=[N-] ?
stdout: not satisfied

stdin: What do we get for C#CCCCC [1-hexyne] + C[n+]1ccn(CCCO)c1.N#CN=C=[N-] ?
stdout: not satisfied

stdin: What do we get for CCCCCCC [heptane] + C[n+]1ccn(CCCO)c1.N#CN=C=[N-] ?
stdout: satisfied

stdin: What do we get for CCCCCCCCCC [decane] + C[n+]1ccn(CCCO)c1.N#CN=C=[N-] ?
stdout: satisfied

stdin: What do we get for C=CCCC [1-pentene] + C[n+]1ccn(CCCO)c1.N#CN=C=[N-] ?
stdout: not satisfied

stdin: What do we get for C1=CCCCC1 [cyclohexene] + C[n+]1ccn(CCCO)c1.N#CN=C=[N-] ?
stdout: not satisfied

stdin: What do we get for C=CCCCC [hex-1-ene] + C[n+]1ccn(CCCO)c1.N#CN=C=[N-] ?
stdout: not satisfied

stdin: What do we get for C#CCCC [1-pentyne] + C[N+]1(CCCO)CCOCC1.N#C[N-]C#N ?
stdout: not satisfied

stdin: What do we get for CCC(C)CC [3-methylpentane] + C[n+]1ccn(CCCO)c1.N#CN=C=[N-] ?
stdout: not satisfied

stdin: What do we get for CCOC(C)(C)C [2-ethoxy-2-methylpropane] + C[N+]1(CCCO)CCOCC1.N#C[N-]C#N ?
stdout: not satisfied

###

# TEST_METHOD_NOTES: activity coefficient (dimensionless); of the first substance listed, at infinite dilution; xn = mol fraction of the nth substance listed
# CONDITION_SET: 318.15 K; 101.33 kPa; Liquid; Chromatography; x1 = 0
Could you label it YES if measured activity coefficient is 20 or higher, and NO otherwise?

stdin: Given the entry CC(C)c1ccccc1 [isopropylbenzene] + C[n+]1ccn(CCCO)c1.N#CN=C=[N-] , answer whether its activity coefficient meets or surpasses 20.
stdout: YES

stdin: What do we get for C=CCCCCC [1-heptene] + C[N+]1(CCCO)CCOCC1.N#C[N-]C#N ?
stdout: YES

stdin: What do we get for CCCCCCCCC [nonane] + C[N+]1(CCCO)CCOCC1.N#C[N-]C#N ?
stdout: YES

stdin: What do we get for C1CCOC1 [tetrahydrofuran] + C[n+]1ccn(CCCO)c1.N#CN=C=[N-] ?
stdout: NO

stdin: What do we get for CCC(C)(C)OC [2-methoxy-2-methylbutane] + C[n+]1ccn(CCCO)c1.N#CN=C=[N-] ?
stdout: YES

stdin: What do we get for CCOC(C)=O [ethyl acetate] + C[N+]1(CCCO)CCOCC1.N#C[N-]C#N ?
stdout: NO

stdin: What do we get for C=COC(C)=O [vinyl acetate] + C[n+]1ccn(CCCO)c1.N#CN=C=[N-] ?
stdout: NO

stdin: What do we get for Cc1ccccc1C [1,2-dimethylbenzene] + C[N+]1(CCCO)CCOCC1.N#C[N-]C#N ?
stdout: NO

stdin: What do we get for Cc1cccc(C)c1 [1,3-dimethylbenzene] + C[N+]1(CCCO)CCOCC1.N#C[N-]C#N ?
stdout: YES

###

# TEST_METHOD_NOTES: activity coefficient (dimensionless); of the first substance listed, at infinite dilution; xn = mol fraction of the nth substance listed
# CONDITION_SET: 358.15 K; 101.33 kPa; Liquid; Chromatography; x1 = 0
METRIC_NAME: activity coefficient
The response must contain the number and no unit.

stdin: For the compound shown here, Cc1ccc(C)cc1 [1,4-dimethylbenzene] + C[N+]1(CCCO)CCOCC1.N#C[N-]C#N , give the reported activity coefficient.
stdout: 23.8

stdin: What do we get for CCCO [propan-1-ol] + C[n+]1ccn(CCCO)c1.N#CN=C=[N-] ?
stdout: 1.77

stdin: What do we get for CCCCCCCCC [nonane] + C[N+]1(CCCO)CCOCC1.N#C[N-]C#N ?
stdout: 994

stdin: What do we get for CC(C)c1ccccc1 [isopropylbenzene] + C[N+]1(CCCO)CCOCC1.N#C[N-]C#N ?
stdout: 48.4

stdin: What do we get for C#CCCCCCC [1-octyne] + C[n+]1ccn(CCCO)c1.N#CN=C=[N-] ?
stdout: 59.6

stdin: What do we get for c1ccccc1 [benzene] + C[n+]1ccn(CCCO)c1.N#CN=C=[N-] ?
stdout: 5.08

stdin: What do we get for c1ccccc1 [benzene] + C[N+]1(CCCO)CCOCC1.N#C[N-]C#N ?
stdout: 7.41

stdin: What do we get for CCO [ethanol] + C[n+]1ccn(CCCO)c1.N#CN=C=[N-] ?
stdout: 1.2

stdin: What do we get for Cc1ccccc1C [1,2-dimethylbenzene] + C[n+]1ccn(CCCO)c1.N#CN=C=[N-] ?
stdout: 12.5

stdin: What do we get for CC1CCCCC1 [methylcyclohexane] + C[n+]1ccn(CCCO)c1.N#CN=C=[N-] ?
stdout: 121

stdin: What do we get for COC(C)(C)C [2-methoxy-2-methylpropane] + C[n+]1ccn(CCCO)c1.N#CN=C=[N-] ?
stdout: 24.3

stdin: What do we get for CC#N [acetonitrile] + C[n+]1ccn(CCCO)c1.N#CN=C=[N-] ?
stdout: 1.37

stdin: What do we get for CO [methanol] + C[N+]1(CCCO)CCOCC1.N#C[N-]C#N ?
stdout: 0.788

stdin: What do we get for Cc1ccccc1 [toluene] + C[n+]1ccn(CCCO)c1.N#CN=C=[N-] ?
stdout: 8.84

stdin: What do we get for CC(C)c1ccccc1 [isopropylbenzene] + C[n+]1ccn(CCCO)c1.N#CN=C=[N-] ?
stdout: 27.1

stdin: What do we get for CCCC(=O)OC [methyl butanoate] + C[n+]1ccn(CCCO)c1.N#CN=C=[N-] ?
stdout: 10.3

stdin: What do we get for C1CCOC1 [tetrahydrofuran] + C[n+]1ccn(CCCO)c1.N#CN=C=[N-] ?
stdout: 3.57

stdin: What do we get for C=CCCCCCC [oct-1-ene] + C[n+]1ccn(CCCO)c1.N#CN=C=[N-] ?
stdout: 234

stdin: What do we get for C=Cc1ccccc1 [styrene] + C[n+]1ccn(CCCO)c1.N#CN=C=[N-] ?
stdout: 7.14

stdin: What do we get for CCC(=O)OC [methyl propanoate] + C[n+]1ccn(CCCO)c1.N#CN=C=[N-] ?
stdout: 6.14

stdin: What do we get for CCCCCCCCC [nonane] + C[n+]1ccn(CCCO)c1.N#CN=C=[N-] ?
stdout: 722

stdin: What do we get for CCCC(=O)OC [methyl butanoate] + C[N+]1(CCCO)CCOCC1.N#C[N-]C#N ?
stdout: 16.3

stdin: What do we get for CC(C)=O [acetone] + C[n+]1ccn(CCCO)c1.N#CN=C=[N-] ?
stdout: 2.09

stdin: What do we get for CCC[N+](=O)[O-] [1-nitropropane] + C[n+]1ccn(CCCO)c1.N#CN=C=[N-] ?
stdout: 3.08

stdin: What do we get for c1ccncc1 [pyridine] + C[N+]1(CCCO)CCOCC1.N#C[N-]C#N ?
stdout: 2.06

stdin: What do we get for C1CCCCCCC1 [cyclooctane] + C[N+]1(CCCO)CCOCC1.N#C[N-]C#N ?
stdout: 260
